The reported measurements were obtained from ChEMBL document CHEMBL1145073.

system: Candida albicans; assay: In vitro antimicrobial activity against Candida albicans 38247; format: functional; details: Candida albicans; read-out: MIC
Property: MIC

See these solved cases before continuing.
Cn1cc(NC(=O)c2cc(NC(=O)c3cc(NC(=O)c4sccc4Cl)cn3C)cn2C)cc1C(=O)NCCN1CCC(F)CC1: > 32 µg/mL
Cn1cc(NC(=O)c2cc(NC(=O)c3cc(NC(=O)c4sccc4Cl)cn3C)cn2C)cc1C(=O)NCCCN1CCCCC1: > 32 µg/mL

Prompt: I would be grateful if you could share the reported MIC for Cn1cc(NC(=O)c2cc(NC(=O)c3cc(NC(=O)c4sccc4Cl)cn3C)cn2C)cc1C(=O)NCCCN1CCOCC1 .
Completion: > 32 µg/mL

---

molecular target: Nucleic Acid; assay: Apparent binding affinity against DNA (5'-ACAATTAA-3') was determined using DNase I footprinting titration method; conditions: read-out: Kd app
Property: pKd
Give bare numbers, as −log10 of the molar value.

See these solved cases before continuing.
Cn1cc(NC(=O)c2cc(NC(=O)c3cc(NC(=O)c4sccc4Cl)cn3C)cn2C)cc1C(=O)NCCN1CCCCC1: 8.30
Cn1cc(NC(=O)c2cc(NC(=O)c3cc(-c4sccc4Cl)cn3C)cn2C)cc1C(=O)NCCN1CCOCC1: 7.70

Prompt: I would be grateful if you could share the reported pKd for Cn1cc(NC(=O)c2cc(NC(=O)c3cc(-c4ccc(Cl)cc4F)cn3C)cn2C)cc1C(=O)NCCN1CCOCC1 .
Completion: 10.00
